biological target: Alpha-2C adrenergic receptor (Homo sapiens) (UniProt P18825); assay: compounds altering alpha2C-coupled GIRK flux – cell-based, HEK293 alpha2C/GIRK1/2, thallium flux, primary screen (AID 624); settings: thallium flux BTC fluorescence, at 10 µM, actives lie on both sides;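 further: slope of fluorescence ratio to pre-addition baseline per second over 15 to 24 s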
Sequence (P18825 whole entry, looked up): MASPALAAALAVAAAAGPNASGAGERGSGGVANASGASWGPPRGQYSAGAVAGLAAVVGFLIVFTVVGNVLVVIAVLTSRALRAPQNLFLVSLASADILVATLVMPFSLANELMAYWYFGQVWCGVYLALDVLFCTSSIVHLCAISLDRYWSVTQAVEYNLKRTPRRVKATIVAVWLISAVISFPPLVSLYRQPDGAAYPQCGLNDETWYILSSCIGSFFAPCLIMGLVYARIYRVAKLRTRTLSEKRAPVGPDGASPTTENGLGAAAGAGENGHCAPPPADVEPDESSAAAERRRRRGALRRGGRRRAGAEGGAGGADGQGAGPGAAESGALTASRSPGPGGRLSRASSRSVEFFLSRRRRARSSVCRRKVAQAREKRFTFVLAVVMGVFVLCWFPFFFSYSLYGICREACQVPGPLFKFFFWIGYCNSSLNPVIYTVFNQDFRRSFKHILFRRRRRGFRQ
The source made the active and inactive calls.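 How the source made its calls: active means fluorescence slope after compound addition differing from the mean of all screened samples at 99.7% confidence, in either direction; inactive means the rest.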
Consider the following molecules; for each one, report its slope.

INSERT INTO results (molecule, data_value) VALUES
  ('COc1ccc(-n2ncc3c(=O)n(CC(=O)OCc4ccccc4)cnc32)cc1', '0.00543 (inactive)'),
  ('c1ccc(Cn2nnnc2C(c2cccs2)N2CCSCC2)cc1 (stereo unspecified)', '0.00524 (inactive)');

Give me slope for each of these molecules, listed below.
1. COCCNC(=O)CN1C(=O)CSc2ncccc21
2. CC(=O)OC(C(=O)NC1CCCCC1)c1ccncc1 (stereo unspecified)
3. COc1ccccc1CC1(C)NC(=O)N(CC(=O)Nc2cc(C)on2)C1=O (stereo unspecified)
4. CCOC(=O)N1CCC(NC(=O)c2ccc(CS(=O)(=O)c3c(Cl)cccc3Cl)o2)CC1

0.00576 (inactive)
0.00464 (inactive)
0.006 (inactive)
0.00587 (inactive)

---

test: inhibitors of TNFa-induced NFkB p65 translocation, primary screen, imaging, HUVEC, MLSMR starter and 10KST1 sets (AID 438); details: HUVEC TNFa-induced p65 nuclear translocation; at 2 µM, stronger effect = higher value, 0% TNFa-plus-vehicle, 100% no-TNFa wells;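 further: compound added about 3h40 before a 20 min TNFalpha stimulation; signal is the nuclear over cytoplasmic p65 intensity ratio per well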
endpoint-label: inhibition (%)
Answers are plain numbers, in %.

Example entries and their recorded answers appear below.
INSERT INTO results (molecule, data_value) VALUES
  ('Cc1cc(NC(=O)CSc2nc3c(c(=O)n2Cc2ccccc2)SC(C)C3)no1 (stereo unspecified)', 8),
  ('COc1ccccc1C(=O)NCCNC(=O)c1ccco1', 6.3),
  ('CCOC(=O)Cn1c(=N)n(CCOc2cccc(C)c2)c2ccccc21', -18.5),
  ('CC1CCN(C(=O)CSc2nnc(Cc3cc(=O)[nH]c(=O)[nH]3)n2-c2ccc(Cl)cc2)CC1', -6.3),
  ('Cc1cc(C(N)=O)c2cc(Br)ccc2n1', 5.5);

Give me inhibition for each of these molecules, listed below.
1. Cc1ccc(Nc2nc(N)nc(CN3CCCCCC3)n2)cc1
2. CC1CCc2nn(CC(=O)NCc3ccc4c(c3)OCO4)cc2C1 (stereo unspecified)
3. c1ccn2c(SCc3cn4ccsc4n3)nnc2c1
4. COc1ccc(N2CCN(CCCNC(=O)CC3Oc4ccc(C)cc4NC3=O)CC2)cc1 (stereo unspecified)
5. CCOC(=O)c1c(NC(=O)c2cccs2)sc(C)c1C
6. O=c1cnnc(NCc2ccccc2)[nH]1

1. 6.8
2. -6.1
3. -7.3
4. 0.9
5. -6
6. -11.2

---

test: TLR3 IRF3 reporter activation blockers – cell-based, poly I:C stimulus, luciferase, 10K MLSCN set, primary screen (AID 602277); details: HEK293-TLR3 RL24 IRF3 luciferase reporter, at 10 µM, stronger effect = higher value
The threshold is inclusive: inhibition of exactly 10% counts as rule met; values below receive rule not met.

INSERT INTO assay_data (compound, discrete_label) VALUES
  ('CCCC1(C(=O)OC)NC(c2cc(OC)c(OC)c(OC)c2)C2C(=O)N(CC)C(=O)C21 (stereo not given)', 'rule not met');

Decide: inhibition of COCCN(CCOC)c1ncnc2c1cnn2-c1ccccc1 >= 10%?
rule not met

Decide: inhibition of COc1ccc(NC(=O)C2CCCN(S(=O)(=O)c3cccc4cccnc34)C2)cc1OC (stereo not given) >= 10%?
rule met

Decide: inhibition of Cc1cc(C)c2c(n1)nn1c(N3CCN(c4cccc(Cl)c4)CC3)cc(C)nc21 >= 10%?
rule met

Decide: inhibition of CC1(C)CC(=O)N(CC(=O)NCc2ccccc2)c2ccccc2S1(=O)=O >= 10%?
rule met

Decide: inhibition of Cc1oc(C(=O)O)cc1CSCc1cc(C(=O)O)c(C)o1 >= 10%?
rule not met

Decide: inhibition of Cn1cc(Cl)c(C(=O)NC2CCCC2)n1 >= 10%?
rule not met

Decide: inhibition of CCC(C(=O)OCC(=O)Nc1c(C)n(C)n(-c2ccccc2)c1=O)c1ccccc1 (stereo not given) >= 10%?
rule met

Decide: inhibition of CC(C)(C)C(=O)NC1CCN(C(=O)N2CCCC2)CC1 >= 10%?
rule met

Decide: inhibition of CCSC1=C(C#N)C(c2ccccc2OC)CC(=O)N1 (stereo not given) >= 10%?
rule met

Decide: inhibition of Cc1c(C)n(C)c2ccc(C(=O)NCc3cccs3)cc12 >= 10%?
rule not met

Decide: inhibition of CCOC(=O)N1CCN(C(=O)c2c(-c3ccccc3)noc2C)CC1 >= 10%?
rule met

Decide: inhibition of CCN1CCN(C(=O)C2CC(c3ccc(F)cc3)=NO2)CC1 (stereo not given) >= 10%?
rule met

Decide: inhibition of Cc1ccc(N2C(=O)c3ccccc3C2O)nc1 (stereo not given) >= 10%?
rule met

Decide: inhibition of CCOC(=O)C1CN(S(=O)(=O)c2ccc(C)cc2)CCN1S(=O)(=O)c1ccc(C)cc1 (stereo not given) >= 10%?
rule met

Decide: inhibition of CCCS(=O)(=O)N1CCCC(C(=O)NC2CCCC(C)C2C)C1 (stereo not given) >= 10%?
rule not met

Decide: inhibition of CCCCNC(=O)CSc1nc2ccc(N3CCOCC3)cc2c(=O)n1CCc1ccccc1 >= 10%?
rule met

Decide: inhibition of COCCNC(=O)C(c1ccc(C)o1)N(Cc1ccc(OC)cc1)C(=O)Cn1nnc2ccccc21 (stereo not given) >= 10%?
rule not met

Decide: inhibition of CCN(CCCNC(=O)CCNC(=O)Cn1ccc2ccccc2c1=O)c1ccccc1 >= 10%?
rule not met

Decide: inhibition of COCCOC(=O)c1[nH]c2c(c1C)C(=O)CC(c1ccc(N(C)C)cc1)C2 (stereo not given) >= 10%?
rule not met

Decide: inhibition of CN(Cc1ccccc1)C(=O)c1ccccc1NC(=O)c1ccco1 >= 10%?
rule met

Decide: inhibition of CCCCn1c2c(c3ccccc31)CCc1nonc1-2 >= 10%?
rule met

Decide: inhibition of COc1ccc(OC)c(S(=O)(=O)N2CCC(C(=O)NCC3CCCO3)CC2)c1 (stereo not given) >= 10%?
rule met

Decide: inhibition of CCCCN(C)C(=O)c1cn(C)c2ccc(S(=O)(=O)N(C)C)cc2c1=O >= 10%?
rule met

Decide: inhibition of NC(=O)C1CCN(C(=S)c2cccs2)CC1 >= 10%?
rule met

Decide: inhibition of CCOC(=O)N1CCN(c2c(NCCN(C)Cc3ccccc3)c(=O)c2=O)CC1 >= 10%?
rule not met

Decide: inhibition of CCOC(=O)C(NC(=O)c1ccccc1)(Nc1cc(C)on1)C(F)(F)F (stereo not given) >= 10%?
rule met

Decide: inhibition of O=C(Nc1ccon1)c1csc2c1CCCC2 >= 10%?
rule met
